# System: SJSA-1
# PROTOCOL_TEXT: Antiproliferative activity against human SJSA cells expressing wild-type p53 by MTT assay
PROPERTY_MEASURED: IC50 (nM)

COc1cc(C(N)=O)ccc1NC(=O)[C@@H]1N[C@@H](CC(C)(C)C)[C@@]2(C(=O)Nc3nc(Cl)ncc32)[C@H]1c1cccc(Cl)c1F (racemic) = 90
COc1cc(C(N)=O)ccc1NC(=O)C1NC(CC(C)(C)C)C2(C(=O)Nc3cc(Cl)sc32)C1c1cccc(Cl)c1F (racemic) = 11
COc1cc(C(N)=O)ccc1NC(=O)[C@@H]1N[C@@H](CC(C)(C)C)[C@@]2(C(=O)Nc3ccncc32)[C@H]1c1cccc(Cl)c1F (racemic) = 2110

[P] COc1cc(C(=O)O)ccc1NC(=O)[C@@H]1N[C@@H](CC(C)(C)C)[C@@]2(C(=O)Nc3nc(Cl)ncc32)[C@H]1c1cccc(Cl)c1F (racemic)
[Q] COc1cc(C(N)=O)ccc1NC(=O)[C@@H]1N[C@@H](CC(C)(C)C)[C@@]2(C(=O)Nc3cc(Cl)ccc32)[C@H]1c1cccc(Cl)c1F
Which gives the smaller IC50 number: P or Q ? Identify your selection by its label.
Q
(Q: 13 nM, P: 100 nM)

[I] COc1cc(C(=O)O)ccc1NC(=O)[C@@H]1N[C@@H](CC(C)(C)C)[C@@]2(C(=O)Nc3nc(Cl)ccc32)[C@H]1c1cccc(Cl)c1F (racemic)
[II] COc1cc(C(N)=O)ccc1NC(=O)[C@@H]1N[C@@H](CC(C)(C)C)[C@@]2(C(=O)Nc3nc(Cl)ccc32)[C@H]1c1cccc(Cl)c1F (racemic)
Look at I and II . Which one has the lower recorded IC50 number? Identify your selection by its label.
I

[1] COc1cc(C(=O)O)ccc1NC(=O)[C@@H]1N[C@@H](CC(C)(C)C)[C@@]2(C(=O)Nc3ccncc32)[C@H]1c1cccc(Cl)c1F (racemic)
[2] COc1cc(C(=O)O)ccc1NC(=O)[C@@H]1N[C@@H](CC(C)(C)C)[C@@]2(C(=O)Nc3cc(Cl)cnc32)[C@H]1c1cccc(Cl)c1F (racemic)
Which has the smaller recorded IC50, 1 or 2 ? Please identify the chosen entry by its label.
2
(2: 61 nM, 1: 22700 nM)
